Values from ChEMBL document CHEMBL4725336

protocolSummary: Selectivity index, ratio of LD50 for human WI-38 cells to LD50 for human MDA-MB-468 cells assessed as inhibition of cell proliferation by MTT assay
Format: toxicity
protocolConditions: WI-38 cells and MDA-MB-468 cells, read-out: Selectivity Index

compound	selectivity ratio
C[C@H]1c2c(ccc3ccccc23)O[C@@H]1C(=O)c1ccccc1	1.88
COc1cc([C@@H]2c3cc4c(cc3[C@@H](O[C@@H]3O[C@@H]5CO[C@@H](C)O[C@H]5[C@H](O)[C@H]3O)[C@H]3COC(=O)[C@H]23)OCO4)cc(OC)c1O [ETOPOSIDE]	1.06
O=C(c1ccco1)[C@@H]1Cc2c(ccc3ccccc23)O1	1.5
COc1ccc([C@H]2c3c(ccc4ccccc34)O[C@@H]2C(=O)c2ccccc2)cc1	0.7
CC(=O)[C@@H]1Cc2c(ccc3ccccc23)O1	2.13
CCC[C@H]1c2c(ccc3ccccc23)O[C@@H]1C(=O)c1ccccc1	1.14
O=C(c1ccccc1)[C@H]1Oc2ccc3ccccc3c2[C@@H]1c1ccc(Cl)cc1	1.1
O=C(c1ccccc1)[C@H]1Oc2ccc3ccccc3c2[C@@H]1c1ccc(Br)cc1	1.22
O=C(c1ccccc1)[C@H]1Oc2ccc3ccccc3c2[C@@H]1c1ccccc1	1.24

###

// values below are reported CC50
System: MDA-MB-468
protocolSummary: Antiproliferative activity against human MDA-MB-468 cells assessed as inhibition of cell proliferation by MTT assay
Assay type: functional
protocolConditions: read-out: LD50 (the source's name)
testReadout: CC50 (µM)

molecule	assayResult
O=C(c1ccco1)[C@H]1Oc2ccc3cc(Br)ccc3c2[C@@H]1c1ccccc1	68
COc1cc([C@@H]2c3cc4c(cc3[C@@H](O[C@@H]3O[C@@H]5CO[C@@H](C)O[C@H]5[C@H](O)[C@H]3O)[C@H]3COC(=O)[C@H]23)OCO4)cc(OC)c1O [ETOPOSIDE]	27.9
N#Cc1ccc(C(=O)[C@H]2Oc3ccc4ccccc4c3[C@@H]2c2ccc3ccccc3c2)cc1	54
O=C(c1ccc(Br)cc1)[C@@H]1Cc2c(ccc3ccccc23)O1	18
O=C(c1ccccc1)[C@H]1Oc2ccc3ccccc3c2[C@@H]1c1ccc(O)cc1	81
O=C(c1ccccc1)[C@H]1Oc2ccc3ccccc3c2[C@@H]1c1ccc2ccccc2c1	23
COc1ccc([C@H]2c3c(ccc4ccccc34)O[C@@H]2C(=O)c2ccccc2)cc1	118
O=C(c1ccco1)[C@@H]1Cc2c(ccc3ccccc23)O1	34

###

protocolSummary: Selectivity index, ratio of LD50 for human WI-38 cells to LD50 for human MCF7 cells assessed as inhibition of cell proliferation by MTT assay
Assay type: toxicity
protocolConditions: WI-38 cells and MCF7 cells, read-out: Selectivity Index
testReadout: selectivity ratio

molecule	testReadout	assayResult
O=C(c1ccco1)[C@H]1Oc2ccc3cc(Br)ccc3c2[C@@H]1c1ccccc1	selectivity ratio	1.28
O=C(c1ccccc1)[C@H]1Oc2ccc3ccccc3c2[C@@H]1C1CCCCC1	selectivity ratio	1.76
O=C(c1ccccc1)[C@H]1Oc2ccc3cc(Br)ccc3c2[C@@H]1c1ccccc1	selectivity ratio	2.74
COc1ccc([C@H]2c3c(ccc4ccccc34)O[C@@H]2C(=O)c2ccccc2)cc1	selectivity ratio	0.98

###

The following molecules are shown together with reported CC50 values.
protocolSummary: Cytotoxicity against human WI-38 cells assessed as inhibition of cell proliferation by MTT assay
Assay type: cell-based
protocolConditions: read-out: LD50 (the source's name)
testReadout: CC50 (µM)

molecule	assayResult
COc1cc([C@@H]2c3cc4c(cc3[C@@H](O[C@@H]3O[C@@H]5CO[C@@H](C)O[C@H]5[C@H](O)[C@H]3O)[C@H]3COC(=O)[C@H]23)OCO4)cc(OC)c1O [ETOPOSIDE]	29.6
O=C(c1ccccc1)[C@H]1Oc2ccc3ccccc3c2[C@@H]1c1ccccc1	89
Cc1ccc([C@H]2c3c(ccc4ccccc34)O[C@@H]2C(=O)c2ccccc2)cc1	72
N#Cc1ccc([C@H]2c3c(ccc4ccccc34)O[C@@H]2C(=O)c2ccccc2)cc1	72
O=C(c1ccco1)[C@@H]1Cc2c(ccc3ccccc23)O1	51
O=C(c1ccccc1)[C@@H]1Cc2c(ccc3cc(Br)ccc23)O1	73
O=C(c1ccccc1)[C@H]1Oc2ccc3ccccc3c2[C@@H]1c1ccc(Cl)cc1	96
O=C(c1ccccc1)[C@H]1Oc2ccc3cc(Br)ccc3c2[C@@H]1c1ccccc1	52
O=C(c1ccc(Br)cc1)[C@@H]1Cc2c(ccc3ccccc23)O1	56
COc1cc([C@H]2c3c(ccc4ccccc34)O[C@@H]2C(=O)c2ccccc2)cc(OC)c1OC	128
O=C(c1ccc(F)cc1)[C@@H]1Cc2c(ccc3ccccc23)O1	54
O=C(c1ccccc1)[C@H]1Oc2ccc3ccccc3c2[C@@H]1c1ccc(O)cc1	115
